Tested on: PC15
protocol_details: qHTS profiling for inhibitors of Plasmodium falciparum proliferation (AID 504749); further: nearly all actives have a fitted effect of over 60% in size
setup_conditions: P. falciparum in erythrocytes, SYBR Green DNA, 72 h; series mostly up to 28.7 µM
Inconclusive results are not listed. Active and inactive are the calls of the source. The call rests on the fitted dose curve; in most records, active means well fitted inhibition curve with a large enough effect; inconclusive means small, poorly fitted or top-dose-only effect; inactive means flat fitted curve, though single readings scatter.
Return exactly one item of active, inactive

| compound | assigned_category |
| --- | --- |
| CC(=O)Oc1ccc(C(c2ccc(OC(C)=O)cc2)c2ccccn2)cc1 | inactive |
| O=C1OCCN1/N=C/c1ccc([N+](=O)[O-])o1 | inactive |
| CCCn1c(=O)[nH]c(=O)c2[nH]cnc21 | inactive |
| CCCCOc1ccc(C(=O)CCN2CCCCC2)cc1 | inactive |

What did this assay record as the result for CC(O)(P(=O)(O)O)P(=O)(O)O ?
inactive
